PROTOCOL: Determination of kinetic solubility (pH 7.4)
Assay type: physicochemical
EXPERIMENTAL CONTEXT: phosphate buffer, pH 7.4, aqueous buffer, kinetic from dmso stock, 50 mM phosphate buffer pH 7.4, read-out: Ksol, pH 7.4
QUANTITY KIND: solubility kinetic at 2 h (µg/mL)

Cc1nsc(/C=C/C(=O)N2CCN(c3nc(OC[C@@]45CCCN4C[C@H](F)C5)nc4c(F)c(-c5nc(N)cc(C)c5C(F)(F)F)ncc34)C[C@@H]2CC#N)n1	106
N#CC[C@H]1CN(c2nc(OCC34CCCN3CCC4)nc3c2CCN(c2cccc4ccc(F)c(Cl)c24)C3)CCN1C(=O)/C=C/CN1CCOCC1	124
N#CC[C@H]1CN(c2nc(OC[C@@]34CCCN3C[C@H](F)C4)nc3c(F)c(-c4cccc5ccc(F)c(Cl)c45)ncc23)CCN1C(=O)/C=C/CN1CCOC2CC21 (some centres unmarked)	86.8
Cc1nccc(/C=C/C(=O)N2CCN(c3nc(OCC45CCCN4CCC5)nc4c(F)c(-c5cccc6ccc(F)c(Cl)c56)ncc34)C[C@@H]2CC#N)n1	89.1

1. CC(C)(C)c1noc(/C=C/C(=O)N2CCN(c3nc(OCC45CCCN4CCC5)nc4c(F)c(-c5cccc6cccc(Cl)c56)ncc34)C[C@@H]2CC#N)n1
2. CC(F)(F)c1noc(/C=C/C(=O)N2CCN(c3nc(OC[C@@]45CCCN4C[C@H](F)C5)nc4c(F)c(-c5cccc6cccc(Cl)c56)ncc34)C[C@@H]2CC#N)n1
3. N#CC[C@H]1CN(c2nc(OC[C@@]34CCCN3C[C@H](F)C4)nc3c(F)c(-c4cccc5cccc(Cl)c45)ncc23)CCN1C(=O)/C=C/CN1CCN(C2COC2)CC1
4. CCc1noc(/C=C/C(=O)N2CCN(c3nc(OCC45CCCN4CCC5)nc4c3CCN(c3cccc5cccc(Cl)c35)C4)C[C@@H]2CC#N)n1
Req: Put the compounds in ascending order of solubility kinetic at 2 h. Answer format: list of labels, ordered as asked.
Resp: 4, 2, 1, 3

###

The following molecules are listed with their measured IC50 values.
STUDY SYSTEM: KRAS G12C (GMPPNP-loaded) and cRAF (Ras-binding domain) interaction (Homo sapiens (Human), UniProt P01116, C118S/C51S/C80L/G12C)
Sequence (P01116 other isoform, or with tags, fused parts or gaps G12C/C51S/C80L/C118S): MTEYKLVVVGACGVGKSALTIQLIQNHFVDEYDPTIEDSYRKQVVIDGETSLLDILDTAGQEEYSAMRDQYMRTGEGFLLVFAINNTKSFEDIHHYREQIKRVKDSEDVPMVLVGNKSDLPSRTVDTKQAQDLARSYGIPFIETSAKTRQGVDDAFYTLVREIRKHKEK
PROTOCOL: Inhibition of KRAS G12C and cRAF binding (AlphaScreen)
EXPERIMENTAL CONTEXT: KRAS G12C loaded with GMPPNP, cRaf RBD, 2 hours preincubation; read-out: Raf-1 RBD K-Ras IC50

Use these answered entries as a reference point.
N#CC[C@H]1CN(c2nc(OC[C@@]34CCCN3C[C@H](F)C4)nc3c(F)c(-c4cccc(Cl)c4C(F)(F)F)ncc23)CCN1C(=O)/C=C/CN1CCOCC1	< 10 nM
N#CC[C@H]1CN(c2nc(OCC34CCCN3CCC4)nc3c2CCN(c2cccc4cccc(Cl)c24)C3)CCN1C(=O)/C=C/c1nc(C2COC2)no1	10 to 100 nM
CC(C)c1noc(/C=C/C(=O)N2CCN(c3nc(OC[C@@]45CCCN4C[C@H](F)C5)nc4c(F)c(-c5nc(N)cc6cccc(Cl)c56)ncc34)C[C@@H]2CC#N)n1	10 to 100 nM

Req: Please list IC50 recorded for the molecule "Cc1c(F)ccc2c(-c3ncc4c(N5CCN(C(=O)/C=C/CN6CC7CC(C6)O7)[C@@H](CC#N)C5)nc(OC[C@@]56CCCN5C[C@H](F)C6)nc4c3F)cccc12"
Resp: > 500 nM

Req: In one line, give reported IC50 of the entry "N#CC[C@H]1CN(c2nc(OC[C@@]34CCCN3C[C@H](F)C4)nc3c(F)c(-c4cccc5ccc(F)c(F)c45)ncc23)CCN1C(=O)/C=C/CN1C2COCC1C2" .
Resp: < 10 nM

###

PROTOCOL: Determination of logD (1-octanol / phosphate buffer pH 7.4)
Format: physicochemical
EXPERIMENTAL CONTEXT: 1-octanol/phosphate buffer, pH 7.4, pH 7.4, 1-octanol/phosphate buffer; read-out: Log D, pH 7.4
QUANTITY KIND: logD

CC(C)(C)c1noc(/C=C/C(=O)N2CCN(c3nc(OCC45CCCN4CCC5)nc4c3CCN(c3cccc5cccc(Cl)c35)C4)C[C@@H]2CC#N)n1	3.09
CCc1noc(/C=C/C(=O)N2CCN(c3nc(OCC45CCCN4CCC5)nc4c(F)c(-c5cccc6cccc(Cl)c56)ncc34)C[C@@H]2CC#N)n1	2.66
N#CC[C@H]1CN(c2nc(OC[C@@]34CCCN3C[C@H](F)C4)nc3c(F)c(-c4ccccc4C(F)F)ncc23)CCN1C(=O)/C=C/CN1[C@@H]2CC[C@H]1COC2	2.16

I. N#CC[C@H]1CN(c2nc(OC[C@@]34CCCN3C[C@H](F)C4)nc3c(F)c(-c4cccc(Cl)c4C(F)(F)F)ncc23)CCN1C(=O)/C=C/CN1C[C@H]2C[C@@H]1CO2
II. Cc1noc(/C=C/C(=O)N2CCN(c3nc(OC[C@@]45CCCN4C[C@H](F)C5)nc4c3CCN(c3cccc5cccc(Cl)c35)C4)C[C@@H]2CC#N)n1
Req: Name the one with the greater logD value, either I or II as given. // caller expects the label of the chosen entry
Resp: II

###

PROTOCOL: Determination of kinetic solubility (pH 7.4)
Format: physicochemical
EXPERIMENTAL CONTEXT: phosphate buffer, pH 7.4, aqueous buffer, kinetic from dmso stock, 50 mM phosphate buffer pH 7.4, read-out: Ksol, pH 7.4
QUANTITY KIND: solubility kinetic at 2 h (µg/mL)

CO[C@H]1CCN(C/C=C/C(=O)N2CCN(c3nc(OC[C@@]45CCCN4C[C@H](F)C5)nc4c(F)c(-c5cccc6ccc(F)c(F)c56)ncc34)C[C@@H]2CC#N)C1	99.9

a. C[C@@H]1CN(C/C=C/C(=O)N2CCN(c3nc(OC[C@@]45CCCN4C[C@H](F)C5)nc4c(F)c(-c5cccc(Cl)c5C5CC5)ncc34)C[C@@H]2CC#N)C[C@H](C)O1
b. Cc1nccc(/C=C/C(=O)N2CCN(c3nc(OC[C@@]45CCCN4C[C@H](F)C5)nc4c(F)c(-c5cccc6ccccc56)ncc34)C[C@@H]2CC#N)n1
Req: Hi, I'm comparing a with b and wondering which one has the bigger number for solubility kinetic at 2 h. Any idea? Refer to your chosen entry by its label in the reply.
Resp: a

###

STUDY SYSTEM: KRAS G12C (GMPPNP-loaded) and cRAF (Ras-binding domain) interaction (Homo sapiens (Human), UniProt P01116, C118S/C51S/C80L/G12C)
PROTOCOL: Inhibition of KRAS G12C and cRAF binding (AlphaScreen)
EXPERIMENTAL CONTEXT: KRAS G12C loaded with GMPPNP, cRaf RBD, 2 hours preincubation; read-out: Raf-1 RBD K-Ras IC50
Experimental: Compounds were diluted in 100% DMSO and each compound concentration was spotted at 200 nl/well onto low volume, white 384 well plates. […] KRAS G12C was preloaded with the GTP analogue Guanosine 5′-[β,γ-imido]triphosphate (GMPPNP). […] IC50S were determined using nonlinear regression fit of [inhibitor] vs. response (4 parameters). […]
pIC50: −log10 of the molar value.
QUANTITY KIND: pIC50

Req: Fill in pIC50 for record "Cc1c(F)ccc2c(-c3ncc4c(N5CCN(C(=O)/C=C/CN6[C@@H]7CC[C@H]6COC7)[C@@H](CC#N)C5)nc(OC[C@@]56CCCN5C[C@H](F)C6)nc4c3F)cccc12"
Resp: 6.30 to 7.00

Req: Please report pIC50 for the following compound: "Cc1c(F)ccc2cccc(-c3ncc4c(N5CCN(C(=O)/C=C/CN6CCOCC6)[C@@H](CC#N)C5)nc(OC[C@@]56CCCN5C[C@H](F)C6)nc4c3F)c12"
Resp: 7.00 to 8.00

Req: Input "N#CC[C@H]1CN(c2nc(OC[C@@]34CCCN3C[C@H](F)C4)nc3c(F)c(-c4cccc(Cl)c4C(F)(F)F)ncc23)CCN1C(=O)/C=C/CN1CC[C@H](F)C1" , output reported pIC50.
Resp: 7.00 to 8.00

###

The following molecules are listed with their measured IC50 values.
STUDY SYSTEM: KRAS G12C (GMPPNP-loaded) and cRAF (Ras-binding domain) interaction (Homo sapiens (Human), UniProt P01116, C118S/C51S/C80L/G12C)
PROTOCOL: Inhibition of KRAS G12C and cRAF binding (AlphaScreen)
EXPERIMENTAL CONTEXT: KRAS G12C loaded with GMPPNP, cRaf RBD, 2 hours preincubation; read-out: Raf-1 RBD K-Ras IC50

Req: Let me know recorded IC50 for N#CC[C@H]1CN(c2nc(OC[C@@]34CCCN3C[C@H](F)C4)nc3c(F)c(-c4cccc5cccc(Cl)c45)ncc23)CCN1C(=O)/C=C/CN1CCCOCC1 [Compound 109] , thanks.
Resp: < 0.01 µM

Req: # return recorded IC50 for input CCc1nccc(/C=C/C(=O)N2CCN(c3nc(OC[C@@]45CCCN4C[C@H](F)C5)nc4c(F)c(-c5cccc6ccc(F)c(Cl)c56)ncc34)C[C@@H]2CC#N)n1 [Example 88]
Resp: < 0.01 µM

Req: Supply recorded IC50 for CCO[C@H]1CCN(C/C=C/C(=O)N2CCN(c3nc(OC[C@@]45CCCN4C[C@H](F)C5)nc4c(F)c(-c5cccc6cccc(Cl)c56)ncc34)C[C@@H]2CC#N)C1 [Compound 91] here.
Resp: < 0.01 µM

Req: Tell me measured IC50 for CC(C)N1CC[C@@H]1/C=C/C(=O)N1CCN(c2nc(OC[C@@]34CCCN3C[C@H](F)C4)nc3c(F)c(-c4cccc(Cl)c4C4CC4)ncc23)C[C@@H]1CC#N [Compound 313] please.
Resp: 0.1 to 0.5 µM

Req: Read the entry Cc1cc(/C=C/C(=O)N2CCN(c3nc(OC[C@@]45CCCN4C[C@H](F)C5)nc4c(F)c(-c5cccc6cccc(F)c56)ncc34)C[C@@H]2CC#N)nc(C)n1 [Compound 214] and write its reported IC50.
Resp: 0.01 to 0.1 µM

Cited source: patent US20250129103A1
